B1: Pistol ribozyme (parent)
chain: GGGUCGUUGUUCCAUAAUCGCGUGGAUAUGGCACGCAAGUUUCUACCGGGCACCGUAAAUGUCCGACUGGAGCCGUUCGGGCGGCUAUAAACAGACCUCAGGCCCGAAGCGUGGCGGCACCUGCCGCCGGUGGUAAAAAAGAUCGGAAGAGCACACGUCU

variants of: B1; experiment: aptazyme ON/OFF ratio, guanine; higher = stronger switching; co-transcriptional cleavage with and without guanine
measurement.label: aptazyme ON/OFF ratio
No unit in the answer, only the number.

[in] Given U7A G9U U10C U11C C12G , respond with its aptazyme ON/OFF ratio.
[out] 1.05

[in] Given U7C U10C C12A C13G , respond with its aptazyme ON/OFF ratio.
[out] 1.18

[in] Given U7C G9U U10A U11G C12U C13G , respond with its aptazyme ON/OFF ratio.
[out] 1.11

[in] Given U8A G9C U11G , respond with its aptazyme ON/OFF ratio.
[out] 1.25

[in] Given U7A U8A G9A U10C U11G C12A C13G , respond with its aptazyme ON/OFF ratio.
[out] 1.09

[in] Given U7G G9U U11A C12G C13A , respond with its aptazyme ON/OFF ratio.
[out] 1.1

[in] Given U7A G9C U11C C12G C13A , respond with its aptazyme ON/OFF ratio.
[out] 1.07

[in] Given U8C U10G U11A C12G C13G , respond with its aptazyme ON/OFF ratio.
[out] 1.15

[in] Given U7A G9C U10A U11C C12A , respond with its aptazyme ON/OFF ratio.
[out] 1.08

[in] Given U7C U8C U10G U11C , respond with its aptazyme ON/OFF ratio.
[out] 1.39

[in] Given U7G G9U U10C U11C C13A , respond with its aptazyme ON/OFF ratio.
[out] 1.05

[in] Given U7G U8A G9U U10A U11G C12A C13A , respond with its aptazyme ON/OFF ratio.
[out] 1.09

[in] Given U8A G9A U10G U11C C13G , respond with its aptazyme ON/OFF ratio.
[out] 1.05

[in] Given U8C G9A U10C U11G C12U C13A , respond with its aptazyme ON/OFF ratio.
[out] 1.42

[in] Given U7A U8G G9A U10G , respond with its aptazyme ON/OFF ratio.
[out] 1.43

[in] Given U7C G9U U10C U11C C13A , respond with its aptazyme ON/OFF ratio.
[out] 1

[in] Given G9A U10A U11C C13A , respond with its aptazyme ON/OFF ratio.
[out] 1.13

[in] Given U7A U8G C12A C13U , respond with its aptazyme ON/OFF ratio.
[out] 1.31

[in] Given U7A U8A G9A U10G U11A C12A , respond with its aptazyme ON/OFF ratio.
[out] 1.15

[in] Given U7C U8G U11G C12U C13G , respond with its aptazyme ON/OFF ratio.
[out] 1.07

[in] Given U7C U8G U10A U11G C12G C13G , respond with its aptazyme ON/OFF ratio.
[out] 1.23

[in] Given U7G U8G G9A U10G U11A C12G C13A , respond with its aptazyme ON/OFF ratio.
[out] 1.13

[in] Given U8A G9A U10G U11C C12A C13G , respond with its aptazyme ON/OFF ratio.
[out] 1.08

[in] Given U7A G9A U11G C12G C13A , respond with its aptazyme ON/OFF ratio.
[out] 1.17

[in] Given U8G U10C U11G , respond with its aptazyme ON/OFF ratio.
[out] 1.75

[in] Given U7C G9C U11A C13A , respond with its aptazyme ON/OFF ratio.
[out] 1.03

[in] Given U7G U8C G9U U11C C13G , respond with its aptazyme ON/OFF ratio.
[out] 1.04

[in] Given U7G U8G G9C U11C C12G C13A , respond with its aptazyme ON/OFF ratio.
[out] 1.16

[in] Given U7A U8G G9A U10G U11C C12U C13G , respond with its aptazyme ON/OFF ratio.
[out] 1.09

[in] Given U7G U8G G9C U10G U11C C12G C13U , respond with its aptazyme ON/OFF ratio.
[out] 1.16

[in] Given U7A U8A G9A C12U , respond with its aptazyme ON/OFF ratio.
[out] 1.32

[in] Given U8G G9C U11C C12A C13U , respond with its aptazyme ON/OFF ratio.
[out] 1.04

[in] Given U8C U10G U11A C12A , respond with its aptazyme ON/OFF ratio.
[out] 1.32

[in] Given U7G U11A C12G , respond with its aptazyme ON/OFF ratio.
[out] 1.18

[in] Given U7A U8C G9C C12A C13A , respond with its aptazyme ON/OFF ratio.
[out] 1.11

[in] Given U8G G9A U10G U11G C12A , respond with its aptazyme ON/OFF ratio.
[out] 1.32

[in] Given U7G U8G G9C U11G C12G , respond with its aptazyme ON/OFF ratio.
[out] 1.6

[in] Given U7G G9C U10G C12A C13U , respond with its aptazyme ON/OFF ratio.
[out] 1.25

[in] Given U8C U11C C12U , respond with its aptazyme ON/OFF ratio.
[out] 1.55

[in] Given U7C U8G U11G C13G , respond with its aptazyme ON/OFF ratio.
[out] 1.07

[in] Given G9C C12U , respond with its aptazyme ON/OFF ratio.
[out] 1.07

[in] Given U7G U8C G9C U10A C12G C13A , respond with its aptazyme ON/OFF ratio.
[out] 1.06

[in] Given U7G U8C G9U U10G U11A C12U C13U , respond with its aptazyme ON/OFF ratio.
[out] 1.36

[in] Given U7G G9U U10A U11G C12A , respond with its aptazyme ON/OFF ratio.
[out] 1.13

[in] Given U7C U8C G9U U10G U11C C12U C13U , respond with its aptazyme ON/OFF ratio.
[out] 1.18

[in] Given U8C U10G U11G C12G C13U , respond with its aptazyme ON/OFF ratio.
[out] 1.26
